Molecular target: Full length Human HDAC6 (Homo sapiens)
Construct: Full length Human HDAC6; FLAG (C); host or cells: baculovirus expression system
Sequence (Q9UBN7 whole entry): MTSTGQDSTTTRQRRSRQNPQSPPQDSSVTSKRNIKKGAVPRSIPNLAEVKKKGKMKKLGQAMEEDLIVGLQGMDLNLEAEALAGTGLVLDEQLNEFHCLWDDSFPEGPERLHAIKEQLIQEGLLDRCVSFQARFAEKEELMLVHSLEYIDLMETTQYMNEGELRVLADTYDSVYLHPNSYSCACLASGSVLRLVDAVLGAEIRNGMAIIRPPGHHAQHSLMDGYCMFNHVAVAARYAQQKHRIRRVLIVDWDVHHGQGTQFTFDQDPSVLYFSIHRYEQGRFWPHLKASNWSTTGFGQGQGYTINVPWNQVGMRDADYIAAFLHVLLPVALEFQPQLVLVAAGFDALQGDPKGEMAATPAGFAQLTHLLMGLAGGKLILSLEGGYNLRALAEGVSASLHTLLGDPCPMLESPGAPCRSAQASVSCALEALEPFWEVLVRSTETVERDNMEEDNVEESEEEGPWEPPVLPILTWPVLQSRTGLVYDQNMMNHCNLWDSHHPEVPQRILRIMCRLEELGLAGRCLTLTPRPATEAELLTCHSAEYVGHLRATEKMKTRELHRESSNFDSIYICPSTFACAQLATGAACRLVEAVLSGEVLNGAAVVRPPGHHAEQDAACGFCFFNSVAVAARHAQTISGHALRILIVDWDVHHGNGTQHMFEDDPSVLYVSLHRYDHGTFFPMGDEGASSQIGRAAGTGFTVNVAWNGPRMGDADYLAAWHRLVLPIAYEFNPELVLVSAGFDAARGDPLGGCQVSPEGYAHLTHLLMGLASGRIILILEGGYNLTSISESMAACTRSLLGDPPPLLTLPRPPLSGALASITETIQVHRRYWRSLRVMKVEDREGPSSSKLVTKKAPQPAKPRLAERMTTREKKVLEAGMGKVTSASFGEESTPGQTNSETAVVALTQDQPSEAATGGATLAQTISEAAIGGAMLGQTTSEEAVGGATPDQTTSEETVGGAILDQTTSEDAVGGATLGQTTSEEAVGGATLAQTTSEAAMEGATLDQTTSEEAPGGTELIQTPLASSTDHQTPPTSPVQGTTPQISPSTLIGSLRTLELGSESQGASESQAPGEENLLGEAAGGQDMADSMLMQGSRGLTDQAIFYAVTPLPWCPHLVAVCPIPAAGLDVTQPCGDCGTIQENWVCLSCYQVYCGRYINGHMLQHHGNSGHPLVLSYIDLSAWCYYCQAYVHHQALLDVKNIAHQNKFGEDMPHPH
Assay: Caliper endpoint assay for HDAC enzymatic activity (HDAC6)
Type: biochemical
Details: ratio of HDAC8 IC50/HDAC6 IC50
experimental-endpoint: Selectivity (6 v 8)

Consider the worked cases shown below.
* CN1CC2CC(C1)C2CN1CCc2cc(C(=O)NO)cc(F)c2C1 (centres unmarked) [Compound 463] | IV (IV: >100-1000)
* CN1CCC[C@@]2(CC[C@@H]2N2CCc3cc(C(=O)NO)cc(F)c3C2)C1 (single isomer, unassigned) [Compound 364] | IV (IV: >100-1000)
* O=C(NO)c1ccc2c(c1)CN1CCC[C@@H]21 (single isomer, unassigned) [Compound 165] | III (III: >10-100)
* CC[C@H]1Cc2c(F)cc(C(=O)NO)cc2CN1C1CC2(CCN(C)CC2)C1 (single isomer, unassigned) [Compound 595] | IV (IV: >100-1000)
* CN1CC2(CCC2N2CCc3cc(C(=O)NO)cc(F)c3C2)C1 (centres unmarked) [Compound 302] | IV (IV: >100-1000)

Give measured Selectivity (6 v 8) for every item shown.
1. CC[C@H]1Cc2c(F)cc(C(=O)NO)cc2CN1C1CCCC1 (single isomer, unassigned) [Compound 581]
2. CC(=O)N1CC2(C[C@H](N3CCc4cc(C(=O)NO)cc(F)c4C3)CCO2)C1 (single isomer, unassigned) [Compound 453]
3. CN1CC[C@H](N2CCc3cc(C(=O)NO)cc(F)c3C2)CC12CCC2 (single isomer, unassigned) [Compound 437]
4. CC[C@H]1Cc2c(F)cc(C(=O)NO)cc2CN1C1CC2(CCOCC2)C1 (single isomer, unassigned) [Compound 591]
5. CC(=O)N1CCC2(CCC2N2CCc3cc(C(=O)NO)cc(F)c3C2)CC1 (centres unmarked) [Compound 360]

III (III: >10-100)
IV (IV: >100-1000)
IV (IV: >100-1000)
IV (IV: >100-1000)
IV (IV: >100-1000)

Give measured Selectivity (6 v 8) for every item shown.
1. CC[C@@H]1Cc2c(F)cc(C(=O)NO)cc2CN1C1CC2(CCN(C)CC2)C1 (single isomer, unassigned) [Compound 594]
2. CC[C@@H]1Cc2c(F)cc(C(=O)NO)cc2CN1CC1COC1 (single isomer, unassigned) [Compound 217]
3. O=C(NO)c1cc(F)c2c(c1)CCN(C1CCC3(CCCCC3)CC1)C2 [Compound 182]
4. CC[C@@H]1Cc2c(F)cc(C(=O)NO)cc2CN1C[C@@H]1CCCCO1 (single isomer, unassigned) [Compound 228]
5. CC[C@H]1Cc2c(F)cc(C(=O)NO)cc2CN1CC12CC(NC)(C1)C2 (single isomer, unassigned) [Compound 523]

1. V (V: >1000)
2. IV (IV: >100-1000)
3. IV (IV: >100-1000)
4. III (III: >10-100)
5. IV (IV: >100-1000)

Give measured Selectivity (6 v 8) for every item shown.
1. O=C(NO)c1cc(F)c2c(c1)CCN(CC1CCC3(CC1)CN(C1CC1)C3)C2 [Compound 466]
2. CN1CCCCC12CC(N1CCc3cc(C(=O)NO)cc(F)c3C1)C2 (centres unmarked) [Compound 352]

1: V (V: >1000); 2: V (V: >1000)
